Assay: PSAC antagonists in infected red cells, primary screen, cell-based, P. falciparum Indochina, OD700, 2 h (AID 1155);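 further: lysis reports solute entry through the parasite surface anion channel PSAC; channel blockers reduce lysis of infected cells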
Settings: P. falciparum Indochina infected erythrocytes, osmotic lysis OD700; higher = more signal, called active from +8 up or from −8 down

# smiles-structure, z-score
measured = [
    ("COC(=O)[C@@H]1CCCN1C(=O)[C@@H](C)CO", -0.603),
    ("COCCOC(=O)N1C(=O)[C@@]2(c3cc(C#CC4(O)CCCCCC4)ccc31)[C@H](c1ccc(OCCO)cc1)N1[C@H](c3ccccc3)[C@H](c3ccccc3)OC(=O)[C@H]1[C@@H]2C(=O)NC[C@H](O)c1ccccc1", 0.524),
    ("CC(=O)OC[C@H]1O[C@H](CCON=C[C@@H](C)[C@H](OCc2ccccc2)C(C)C)C=C[C@@H]1OC(C)=O", 0.412),
]
